All values here come from IntAct's records for PubMed 21224891.

B1: X-linked retinitis pigmentosa GTPase regulator-interacting protein 1 (Homo sapiens), Q96KN7 (parent)
chain: MSHLVDPTSGDLPVRDIDAIPLVLPASKGKNMKTQPPLSRMNREELEDSFFRLREDHMLVKELSWKQQDEIKRLRTTLLRLTAAGRDLRVAEEAAPLSETARRGQKAGWRQRLSMHQRPQMHRLQGHFHCVGPASPRRAQPRVQVGHRQLHTAGAPVPEKPKRGPRDRLSYTAPPSFKEHATNENRGEVASKPSELVSGSNSIISFSSVISMAKPIGLCMPNSAHIMASNTMQVEEPPKSPEKMWPKDENFEQRSSLECAQKAAELRASIKEKVELIRLKKLLHERNASLVMTKAQLTEVQEAYETLLQKNQGILSAAHEALLKQVNELRAELKEESKKAVSLKSQLEDVSILQMTLKEFQERVEDLEKERKLLNDNYDKLLESMLDSSDSSSQPHWSNELIAEQLQQQVSQLQDQLDAELEDKRKVLLELSREKAQNEDLKLEVTNILQKHKQEVELLQNAATISQPPDRQSEPATHPAVLQENTQIEPSEPKNQEEKKLSQVLNELQVSHAETTLELEKTRDMLILQRKINVCYQEELEAMMTKADNDNRDHKEKLERLTRLLDLKNNRIKQLEGILRSHDLPTSEQLKDVAYGTRPLSLCLETLPAHGDEDKVDISLLHQGENLFELHIHQAFLTSAALAQAGDTQPTTFCTYSFYDFETHCTPLSVGPQPLYDFTSQYVMETDSLFLHYLQEASARLDIHQAMASEHSTLAAGWICFDRVLETVEKVHGLATLIGAGGEEFGVLEYWMRLRFPIKPSLQACNKRKKAQVYLSTDVLGGRKAQEEEFRSESWEPQNELWIEITKCCGLRSRWLGTQPSPYAVYRFFTFSDHDTAIIPASNNPYFRDQARFPVLVTSDLDHYLRREALSIHVFDDEDLEPGSYLGRARVPLLPLAKNESIKGDFNLTDPAEKPNGSIQVQLDWKFPYIPPESFLKPEAQTKGKDTKDSSKISSEEEKASFPSQDQMASPEVPIEAGQYRSKRKPPHGGERKEKEHQVVSYSRRKHGKRIGVQGKNRMEYLSLNILNGNTPEQVNYTEWKFSETNSFIGDGFKNQHEEEEMTLSHSALKQKEPLHPVNDKESSEQGSEVSEAQTTDSDDVIVPPMSQKYPKADSEKMCIEIVSLAFYPEAEVMSDENIKQVYVEYKFYDLPLSETETPVSLRKPRAGEEIHFHFSKVIDLDPQEQQGRRRFLFDMLNGQDPDQGHLKFTVVSDPLDEEKKECEEVGYAYLQLWQILESGRDILEQELDIVSPEDLATPIGRLKVSLQAAAVLHAIYKEMTEDLFS
partner: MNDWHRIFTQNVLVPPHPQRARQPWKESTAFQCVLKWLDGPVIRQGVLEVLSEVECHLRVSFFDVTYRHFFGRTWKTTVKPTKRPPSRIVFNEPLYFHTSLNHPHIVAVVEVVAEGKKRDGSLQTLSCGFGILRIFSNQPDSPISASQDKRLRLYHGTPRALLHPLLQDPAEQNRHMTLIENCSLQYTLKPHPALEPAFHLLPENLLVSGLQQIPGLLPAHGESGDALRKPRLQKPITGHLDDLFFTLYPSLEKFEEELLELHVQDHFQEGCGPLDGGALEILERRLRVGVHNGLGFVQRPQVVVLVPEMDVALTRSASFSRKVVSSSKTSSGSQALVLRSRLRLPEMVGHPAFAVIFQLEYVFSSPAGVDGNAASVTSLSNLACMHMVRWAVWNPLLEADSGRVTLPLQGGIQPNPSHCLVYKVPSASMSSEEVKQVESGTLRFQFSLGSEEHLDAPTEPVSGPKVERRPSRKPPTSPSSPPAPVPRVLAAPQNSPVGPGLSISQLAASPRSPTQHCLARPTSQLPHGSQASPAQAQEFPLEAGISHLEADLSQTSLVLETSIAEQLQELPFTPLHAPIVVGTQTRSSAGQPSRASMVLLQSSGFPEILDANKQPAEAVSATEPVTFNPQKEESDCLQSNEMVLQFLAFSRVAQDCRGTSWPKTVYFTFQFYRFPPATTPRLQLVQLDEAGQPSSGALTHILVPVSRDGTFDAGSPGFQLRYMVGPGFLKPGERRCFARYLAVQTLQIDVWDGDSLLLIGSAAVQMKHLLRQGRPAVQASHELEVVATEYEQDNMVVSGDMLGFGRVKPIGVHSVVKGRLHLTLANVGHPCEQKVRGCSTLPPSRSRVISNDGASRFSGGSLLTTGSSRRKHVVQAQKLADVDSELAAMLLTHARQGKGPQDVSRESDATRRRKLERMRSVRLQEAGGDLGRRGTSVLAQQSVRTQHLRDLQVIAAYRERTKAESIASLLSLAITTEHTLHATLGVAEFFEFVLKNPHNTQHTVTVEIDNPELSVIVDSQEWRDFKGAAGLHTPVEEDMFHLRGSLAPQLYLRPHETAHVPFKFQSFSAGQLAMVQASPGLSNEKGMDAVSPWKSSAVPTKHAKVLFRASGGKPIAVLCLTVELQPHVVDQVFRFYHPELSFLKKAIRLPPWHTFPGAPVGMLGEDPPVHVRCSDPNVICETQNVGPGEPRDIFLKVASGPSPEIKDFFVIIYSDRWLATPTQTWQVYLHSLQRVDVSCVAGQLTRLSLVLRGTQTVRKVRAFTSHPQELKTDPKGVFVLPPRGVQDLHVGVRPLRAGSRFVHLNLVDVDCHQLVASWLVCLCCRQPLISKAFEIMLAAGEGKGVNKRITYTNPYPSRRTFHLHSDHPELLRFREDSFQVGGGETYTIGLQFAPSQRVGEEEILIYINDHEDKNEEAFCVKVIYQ

variants of: B1; conditions: with nphp4_human NPHP4, O75161
endpointLabel: effect of a mutation on the interaction

A764V :: with no effect
Q589H :: with no effect
